For each of the compounds below, state its Peptide signal (feature intensity) in the small intestine, 120 min.
experiment: FBMN analysis of short peptides in small intestine contents and serum after oral DHG; conditions: small intestine contents, 120 min after oral DHG, C57 mice; FBMN feature intensity, peptides smaller than 690 Da
Peptide text beside a SMILES is read from it.
Answers are plain numbers.

For orientation, consider the following solved cases.
>  <Compound>
CC(C)CC(NC(=O)C(N)C(C)C)C(=O)O (stereo not drawn) [Val-Leu] (H-Val-Leu-OH; configuration not given here)

>  <Reading>
0.00E+00

$$$$
>  <Compound>
CC(C)[C@H](N)C(=O)NCC(=O)N[C@H](C(=O)O)C(C)C [Val-Gly-Val] (H-Val-Gly-Val-OH)

>  <Reading>
0.00E+00

$$$$
>  <Compound>
CC[C@H](C)[C@H](NC(=O)[C@@H](N)Cc1ccccc1)C(=O)N[C@@H](CCCCN)C(=O)O [Phe-Ile-Lys] (H-Phe-Ile-Lys-OH)

>  <Reading>
8.61E+05

$$$$
>  <Compound>
CC(C)[C@H](N)C(=O)N[C@H](C(=O)O)C(C)C [Val-Val] (H-Val-Val-OH)

>  <Reading>
0.00E+00

$$$$
>  <Compound>
CC(C)[C@H](NC(=O)[C@@H](N)Cc1ccc(O)cc1)C(=O)O [Tyr-Val] (H-Tyr-Val-OH)

>  <Reading>
0.00E+00

$$$$
>  <Compound>
O=C1CNC(=O)C(Cc2ccccc2)N1 (stereo not shown)

>  <Reading>
9.00E+05

$$$$

Answer with reported Peptide signal (feature intensity) in the small intestine, 120 min of NC(Cc1ccccc1)C(=O)NC(Cc1ccc(O)cc1)C(=O)O (stereo not drawn) [Phe-Tyr] (H-Phe-Tyr-OH; configuration not given here)
8.30E+05

---

system: Glu-induced HT-22 cells; test: Neuroprotection in Glu-injured HT-22 cells (CCK-8 cell viability); conditions: compound 50 μM; Glu-only model (0 μM) 40.759±1.939
For each of the molecules below, state its Cell viability(%) in Glu-induced HT-22 cells.
One number for each entry, in %.

For orientation, consider the following solved cases.
>  <Molecule>
O=C1[C@@H]2CCCN2C(=O)[C@@H]2CCCN12

>  <Reading>
58.451

$$$$
>  <Molecule>
O=C1NCC(=O)N2CC(O)CC12 (stereo not shown)

>  <Reading>
53.703

$$$$
>  <Molecule>
CC(C)[C@@H]1NC(=O)[C@@H]2CCCN2C1=O

>  <Reading>
58.518

$$$$
>  <Molecule>
CC(C)CC1NC(=O)C2CCCN2C1=O (stereo not shown)

>  <Reading>
55.781

$$$$
>  <Molecule>
CC(C)CC1NC(=O)C2CC(O)CN2C1=O (stereo not shown)

>  <Reading>
53.590

$$$$

# batch: return Cell viability(%) in Glu-induced HT-22 cells for each of the 2 molecules below
1. O=C1N[C@@H](Cc2cnc[nH]2)C(=O)N2CCC[C@@H]12
2. O=C1NCC(=O)N2CCC[C@@H]12

[55.361, 58.506]

---

assay: Serum pharmacokinetics of CDPs after oral administration of DHG (targeted LC-MS, noncompartmental analysis); conditions: serum, mice, oral DHG 1000 mg/kg
Measured Endpoint: T max (min)
One number for each entry, in min.

# batch: return T max for each of the 8 compounds below
1. O=C1NCC(=O)N2CCC[C@@H]12
2. O=C1NCC(=O)N2CC(O)CC12 (centres unmarked)
3. CC1NC(=O)C2CC(O)CN2C1=O (centres unmarked)
4. O=C1[C@@H]2C[C@@H](O)CN2C(=O)[C@@H]2CCCN12
5. O=C1N[C@@H](Cc2ccccc2)C(=O)N2C[C@@H](O)C[C@@H]12
6. CC(C)CC1NC(=O)C2CC(O)CN2C1=O (centres unmarked)
7. O=C1N[C@@H](Cc2cnc[nH]2)C(=O)N2CCC[C@@H]12
8. CC(C)CC1NC(=O)C2CCCN2C1=O (centres unmarked)

[60, 120, 60, 60, 60, 30, 30, 30]

# batch: return T max for each of the 3 compounds below
1. CC(C)[C@@H]1NC(=O)[C@@H]2CCCN2C1=O
2. O=C1[C@@H]2CCCN2C(=O)[C@@H]2CCCN12
3. CC[C@H](C)[C@@H]1NC(=O)[C@@H]2CCCN2C1=O

30
30
30

---

system: Glu-induced HT-22 cells; assay: Neuroprotection in Glu-injured HT-22 cells (CCK-8 cell viability); conditions: compound 25 μM; Glu-only model (0 μM) 40.759±1.939
Measured Endpoint: Cell viability(%) in Glu-induced HT-22 cells
Numbers only, in %.

For orientation, consider the following solved cases.
>  <Compound>
O=C1[C@@H]2C[C@@H](O)CN2C(=O)[C@@H]2CCCN12

>  <Reading Unit>
%

>  <Reading>
53.105

$$$$
>  <Compound>
O=C1N[C@@H](Cc2cnc[nH]2)C(=O)N2CCC[C@@H]12

>  <Reading Unit>
%

>  <Reading>
52.701

$$$$
>  <Compound>
CC(C)CC1NC(=O)C2CC(O)CN2C1=O (centres unmarked)

>  <Reading Unit>
%

>  <Reading>
53.193

$$$$

# batch: return Cell viability(%) in Glu-induced HT-22 cells for each of the 4 compounds below
1. O=C1NCC(=O)N2CC(O)CC12 (centres unmarked)
2. O=C1N[C@@H](Cc2ccccc2)C(=O)N2C[C@@H](O)C[C@@H]12
3. CC1NC(=O)C2CC(O)CN2C1=O (centres unmarked)
4. CC[C@H](C)[C@@H]1NC(=O)[C@@H]2CCCN2C1=O

1. 61.970
2. 56.084
3. 54.245
4. 58.030

# batch: return Cell viability(%) in Glu-induced HT-22 cells for each of the 4 compounds below
1. CC(C)[C@@H]1NC(=O)[C@@H]2CCCN2C1=O
2. CC(C)CC1NC(=O)C2CCCN2C1=O (centres unmarked)
3. O=C1[C@@H]2CCCN2C(=O)[C@@H]2CCCN12
4. O=C1NCC(=O)N2CCC[C@@H]12

[57.390, 52.208, 57.390, 54.865]

---

For each of the compounds below, state its Peptide signal (feature intensity) in the small intestine, 60 min.
assay: FBMN analysis of short peptides in small intestine contents and serum after oral DHG; settings: small intestine contents, 60 min after oral DHG, C57 mice; FBMN feature intensity, peptides smaller than 690 Da
Peptide text beside a SMILES is read from it.
Give bare numbers.

For orientation, consider the following solved cases.
>  <Compound>
CC(C)[C@H](NC(=O)[C@@H](N)Cc1ccc(O)cc1)C(=O)O [Tyr-Val] (H-Tyr-Val-OH)

>  <Reading>
1.48E+06

$$$$
>  <Compound>
CC(C)CC(NC(=O)C(N)CO)C(=O)O (stereo not drawn) [Ser-Leu] (H-Ser-Leu-OH; configuration not given here)

>  <Reading>
1.15E+07

$$$$
>  <Compound>
NC(=O)CC[C@H](NC(=O)[C@@H](N)Cc1ccccc1)C(=O)O

>  <Reading>
1.71E+05

$$$$
>  <Compound>
CC[C@H](C)[C@H](N)C(=O)N[C@@H](CC(N)=O)C(=O)O [Ile-Asn] (H-Ile-Asn-OH)

>  <Reading>
7.66E+06

$$$$
>  <Compound>
N[C@@H](Cc1c[nH]c2ccccc12)C(=O)N[C@@H](CCC(=O)O)C(=O)O [Trp-Glu] (H-Trp-Glu-OH)

>  <Reading>
0.00E+00

$$$$
>  <Compound>
CSCC[C@H](NC(=O)CN)C(=O)O

>  <Reading>
7.49E+05

$$$$
>  <Compound>
CC(C)[C@H](NC(=O)CN)C(=O)O [Gly-Val] (H-Gly-Val-OH)

>  <Reading>
3.54E+06

$$$$
>  <Compound>
CC(C)[C@H](N)C(=O)N[C@@H](Cc1ccccc1)C(=O)O [Val-Phe] (H-Val-Phe-OH)

>  <Reading>
1.78E+06

$$$$

# batch: return Peptide signal (feature intensity) in the small intestine, 60 min for each of the 2 compounds below
1. CC(C)[C@H](NC(=O)[C@@H](N)CCC(=O)O)C(=O)N[C@@H](Cc1ccccc1)C(=O)O [Glu-Val-Phe] (H-Glu-Val-Phe-OH)
2. N[C@@H](Cc1ccccc1)C(=O)N[C@@H](CCC(=O)O)C(=O)O [Phe-Glu] (H-Phe-Glu-OH)

1. 1.52E+05
2. 3.77E+06

---

assay: FBMN analysis of short peptides in small intestine contents and serum after oral DHG; details: small intestine contents, 30 min after oral DHG, C57 mice; FBMN feature intensity, peptides smaller than 690 Da
Square brackets hold non-standard residues; d marks the D form. Peptide text beside a SMILES is read from it. pGlu = O=C1CC[CH](C(=O)O)N1
For each of the molecules below, state its Peptide signal (feature intensity) in the small intestine, 30 min.
One number for each entry.

>  <Molecule>
CCC(C)C(NC(=O)C1CCC(=O)N1)C(=O)O (centres unmarked) [PyroGlu-Ile] ([pGlu]-Ile-OH; configuration not given here)

>  <Reading>
7.74E+05

$$$$
>  <Molecule>
CC(C)CC(NC(=O)C(N)CO)C(=O)O (stereo not drawn) [Ser-Leu] (H-Ser-Leu-OH; configuration not given here)

>  <Reading>
0.00E+00

$$$$
>  <Molecule>
CC(C)[C@H](NC(=O)[C@@H](N)Cc1ccc(O)cc1)C(=O)O [Tyr-Val] (H-Tyr-Val-OH)

>  <Reading>
2.96E+06

$$$$
>  <Molecule>
CSCCC(N)C(=O)NC(C(=O)O)C(C)C (stereo not drawn) [Met-Val] (H-Met-Val-OH; configuration not given here)

>  <Reading>
0.00E+00

$$$$
>  <Molecule>
CC(C)C[C@H](N)C(=O)N[C@H](C(=O)N[C@@H](CCCCN)C(=O)O)C(C)C [Leu-Val-Lys] (H-Leu-Val-Lys-OH)

>  <Reading>
0.00E+00

$$$$
>  <Molecule>
CC[C@H](C)[C@H](N)C(=O)N[C@@H](CCC(=O)O)C(=O)N[C@@H](CCCCN)C(=O)O [Ile-Glu-Lys] (H-Ile-Glu-Lys-OH)

>  <Reading>
0.00E+00

$$$$

# batch: return Peptide signal (feature intensity) in the small intestine, 30 min for each of the 6 molecules below
1. CC(C)CC(NC(=O)C(N)Cc1ccccc1)C(=O)O (stereo not drawn) [Phe-Leu] (H-Phe-Leu-OH; configuration not given here)
2. CCCC[C@H](NC(=O)[C@H](C)N)C(=O)O [L-Alanyl-L-norleucine] (HELM PEPTIDE1{A.[Nle]}$$$$V2.0)
3. CC(C)[C@H](N)C(=O)NCC(=O)N[C@H](C(=O)O)C(C)C [Val-Gly-Val] (H-Val-Gly-Val-OH)
4. CC(C)C[C@H](NC(=O)CN)C(=O)O [Gly-Leu]
5. NC(=O)CC[C@H](NC(=O)[C@@H](N)Cc1ccccc1)C(=O)O [Phe-Gln]
6. CC(C)CC(NC(=O)C(NC(=O)C(N)C(C)O)C(C)C)C(=O)O (stereo not drawn) [Thr-Val-Leu] (H-Thr-Val-Leu-OH; configuration not given here)

2.64E+06
1.73E+05
4.35E+07
0.00E+00
0.00E+00
5.29E+05

# batch: return Peptide signal (feature intensity) in the small intestine, 30 min for each of the 2 molecules below
1. O=C(O)C(Cc1ccccc1)NC(=O)C1CCCN1 (stereo not drawn) [Pro-Phe] (H-Pro-Phe-OH; configuration not given here)
2. CC(C)[C@H](NC(=O)[C@@H](N)CCC(=O)O)C(=O)N[C@@H](Cc1ccccc1)C(=O)O [Glu-Val-Phe] (H-Glu-Val-Phe-OH)

9.57E+05
2.73E+05
